Catalogue of remaining at 10 min readings, one per entry.
- protocol_summary: Metabolic stability in human liver microsomes assessed as compound remaining after 10 mins
- Assay type: ADME
- measurement_setup: read-out: Stability
measurement_label: remaining at 10 min (%)

COc1nc(C)c(Nc2nc(Cl)cn([C@H](COC(=O)Nc3cccnc3)C3CC3)c2=O)cc1C 36
COc1nc(C)c(Nc2nc(Cl)cn([C@H](COC(=O)Nc3ccccc3)C3CC3)c2=O)cc1C 32
Cc1cc(Nc2nc(Cl)cn([C@H](COC(=O)Nc3cccnc3)C3CC3)c2=O)c(C)nc1OC(F)F 71
Cc1cc(Nc2nc(Cl)cn([C@H](COC(=O)Nc3ccccc3)C3CC3)c2=O)c(C)nc1OC(F)F 77

Sourced from ChEMBL document CHEMBL3797145
